Entry source: patent US20240317857A1

Target: T1, His-labeled human CD3E (human, UniProt P07766 23-126)
T1 construct: also called human CD3E antigen; antigen CD3E; not shown: His label
T1 sequence (P07766 23-126): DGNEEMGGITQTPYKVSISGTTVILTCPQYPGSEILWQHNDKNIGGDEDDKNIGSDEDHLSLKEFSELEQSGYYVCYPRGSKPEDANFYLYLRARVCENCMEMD
Assay: BLI (Octet), method of Example 3: His-labeled human CD3E on Ni-NTA sensors
kon: recorded values
Unit M⁻¹ s⁻¹ implied. Number only.

binder	kon (M⁻¹ s⁻¹)
humanized antibody AB616 (antibody, V domains shown) VH: EVQLLESGGGLVQPGGSLKLSCAASGFTFDTYAMNWVRQAPGKGLEWVGRIRSKINNYATYYADSVKDRFTISRDDSKNTAYLQMNNLKTEDTAMYYCVRHDNFYGSTYSWFADWGQGTLVTVSS VL: ELVVTQEPSLTVSPGGTVTLTCRSSTGVVTTSNYANWVQEKPDHLFTGLIGATNYRAPGTPARFSGSLLGGKAALTLSGVQPEDEAIYFCVLWYSNHWVFGGGTKLTVL	256000

Value lookup for kon; key = humanized antibody AB618 (antibody, V domains shown) VH: EVQLLESGGGLVQPGGSLKLSCAASGFTFNTYAMNWVRQAPGKGLEWVGRIRSKINNYATYYADSVKDRFTISRDDSKNTAYLQMNNLKTEDTAMYYCVRHDNFYGSTYSWFADWGQGTLVTVSS VL: ELVVTQEPSLTVSPGGTVTLTCRSSTGVVTTSNYANWVQEKPDHLFTGLIGDTNYRAPGTPARFSGSLLGGKAALTLSGVQPEDEAIYFCVLWYSNHWVFGGGTKLTVL
51200
